Listed next: entries and their corresponding melting point.

Some compounds with recorded melting point:
[
  {
    "compound": "CC(=O)OC1=CC(NC(=O)CCc2ccc(Cl)cc2Cl)C(=O)N(C)c2ccccc21 (stereo not drawn)",
    "melting point": "142 to 144 °C"
  },
  {
    "compound": "COC(=O)C(O)C(CC(C)C)NC(=O)C(Cc1c[nH]cn1)NC(=O)C(CC(=O)N1CCCCC1)Cc1cccc2ccccc12 (mixture of isomers)",
    "melting point": "91 to 97 °C"
  },
  {
    "compound": "Cc1c(C(=O)O)ccc2c3ccccc3n(Cc3ccccc3)c12",
    "melting point": "215 to 216 °C"
  },
  {
    "compound": "CCC[C@@H]1O[C@](/C=C/C2CC2)(C(F)(F)F)c2cc(Cl)ccc2NC1=O (relative stereo)",
    "melting point": "165 to 167 °C"
  },
  {
    "compound": "COc1cc(Nc2c(C#N)cnc3cc4cc(OC)c(OCCN5CCC(O)CC5)cc4cc23)c(Cl)cc1C",
    "melting point": "205 to 235 °C"
  },
  {
    "compound": "CC(c1cccs1)N(O)C(N)=O (stereo not drawn)",
    "melting point": "130 °C"
  }
]

Look up melting point for this compound: `COc1ccc(C(=O)NNC(C)=O)cc1` 146 to 148 °C

Quick check: melting point of `CC(C)c1cccc(N2CCN(c3cccc(C(=O)O)c3)C2=O)c1` ? 189 to 190 °C

For COc1cc2c(cc1OC)C(=O)C(CC=O)C2 (racemic) , what is its reported melting point? 122 °C
